Target: BuChE purified from human plasma (Homo sapiens)
Construct: BuChE purified from human plasma; from tissue; host or cells: human plasma
Sequence (P06276 29-602): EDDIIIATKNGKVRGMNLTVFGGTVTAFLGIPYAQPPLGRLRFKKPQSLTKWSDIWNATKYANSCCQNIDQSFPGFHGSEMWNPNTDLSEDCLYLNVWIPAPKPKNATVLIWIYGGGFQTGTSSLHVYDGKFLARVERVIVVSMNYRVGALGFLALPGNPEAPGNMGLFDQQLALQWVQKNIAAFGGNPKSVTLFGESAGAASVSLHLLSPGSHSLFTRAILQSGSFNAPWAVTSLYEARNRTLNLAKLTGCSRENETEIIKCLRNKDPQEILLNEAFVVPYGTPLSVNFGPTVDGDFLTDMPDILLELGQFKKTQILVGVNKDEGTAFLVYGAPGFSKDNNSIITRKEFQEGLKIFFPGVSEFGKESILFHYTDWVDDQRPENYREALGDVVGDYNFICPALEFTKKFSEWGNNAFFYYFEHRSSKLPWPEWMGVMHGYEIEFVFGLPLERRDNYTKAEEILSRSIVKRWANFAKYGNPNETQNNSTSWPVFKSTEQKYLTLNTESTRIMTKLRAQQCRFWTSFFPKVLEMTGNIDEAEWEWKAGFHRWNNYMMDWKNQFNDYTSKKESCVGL
Experiment: Ellman assay, BuChE inhibition
Format: biochemical
Settings: IC50 AChE/IC50 BuChE; 100 µM used for AChE where % inhibition at 100 µM was <50%
In this section, each of the compounds is paired with its reported Selectivity.

COMPOUND | Selectivity
COc1cc(/C=C/C(=O)O[C@@H]2CO[C@H]3[C@@H]2OC[C@@H]3OC(=O)NCc2ccccc2)ccc1O [Compound 8a, Isosorbide-2-benzylcarbanate-5-ferulate] | >55
O=C(CCCCC1CCSS1)O[C@@H]1CO[C@H]2[C@@H]1OC[C@@H]2OC(=O)Nc1ccccc1 (stereo partly drawn) | >7.5
O=C(CCCCC1CCSS1)O[C@@H]1CO[C@H]2[C@@H]1OC[C@@H]2OC(=O)NCc1ccccc1 (stereo partly drawn) | >667
